Listed compounds paired with reported viability index
# Tested on: Plasmodium falciparum NF54 gametocytes
# TEST SUMMARY: viability index relative to DMSO control (fraction); higher = less gametocyte killing
# CONDITION CONTEXT: gametocyte stage: Stage IV viability index; 12.5 µM; incubation time: 72 h

CHEM SMILES: CCN1CCN(c2cc(C)c3cc(NC(=O)c4ccc(OC)c(OC)c4)ccc3n2)CC1
SYSTEM NAME: Plasmodium falciparum NF54 gametocytes
viability index: 0.818
//
CHEM SMILES: Cc1ccc2cc3c(N)c4c(C)ccc(C)c4nc3nc2c1
SYSTEM NAME: Plasmodium falciparum NF54 gametocytes
viability index: 0.00316
//
CHEM SMILES: O=C(Nc1nc(-c2ccccn2)cs1)c1ccccc1Br
SYSTEM NAME: Plasmodium falciparum NF54 gametocytes
viability index: 0.158

---

# Tested on: Plasmodium falciparum NF54 gametocytes
# TEST SUMMARY: viability index relative to DMSO control (fraction); higher = less gametocyte killing
# CONDITION CONTEXT: gametocyte stage: Stage V viability index; 12.5 µM; incubation time: 72 h
Lab note: cut-off is 0.7. Strictly less in viability index is Y. Exactly 0.7 or more is N.

MOLECULE: COC(=O)c1ccc(Cl)c2c1C1C=CCC1C(c1cccc3ccccc13)N2 (centres undefined)
ASSIGNED CLASS: N
--
MOLECULE: O=c1nc(C=Cc2ccc(Br)cc2)oc2ccccc12
ASSIGNED CLASS: N
--
MOLECULE: COc1ccccc1CNC(=O)C1c2ccccc2C(=O)N(CC(C)C)C1c1cccs1 (centres undefined)
ASSIGNED CLASS: N
--
MOLECULE: COc1ccccc1CNC(=O)CCn1c(=O)[nH]c2ccccc2c1=O
ASSIGNED CLASS: N
--
MOLECULE: COc1cc(-c2nc(-c3ccccc3)c(-c3ccccc3)[nH]2)cc(OC)c1O
ASSIGNED CLASS: Y
--
MOLECULE: COc1ccc2nc(C)cc(Nc3ccccc3O)c2c1
ASSIGNED CLASS: N
--
MOLECULE: O=C(Nc1cccc(C2=NCCN2)c1)Nc1cccc(C2=NCCN2)c1
ASSIGNED CLASS: N
--
MOLECULE: CCCCCCc1cc2cc(-c3csc(C=Cc4ccccc4)n3)c(=O)oc2cc1O
ASSIGNED CLASS: Y
--
MOLECULE: COc1ccc(C(C)=O)cc1N1C(=O)C2C(C1=O)C1(c3ccccc3)C(=O)C2(c2ccccc2)C(c2ccc(C)cc2)=C1c1ccc(C)cc1 (centres undefined)
ASSIGNED CLASS: N
--
MOLECULE: COc1ccc(OC)c(C2C3=C(CC(C)(C)CC3=O)N(c3ccc(Cl)c(Cl)c3)C3=C2C(=O)CC(C)(C)C3)c1
ASSIGNED CLASS: Y
--
MOLECULE: CCOc1ccc(N2C(N)=NC(N)=NC2(C)C)cc1
ASSIGNED CLASS: N
--
MOLECULE: COc1cc(C(=O)Nc2nc3c(cc4c5c(cccc53)CC4)s2)cc(OC)c1OC
ASSIGNED CLASS: N
--
MOLECULE: CN(C)CCNc1cc(-c2ccccc2)nc2ccccc12
ASSIGNED CLASS: N
--
MOLECULE: c1ccc2c(NCCc3c[nH]c4ccccc34)c3ccccc3nc2c1
ASSIGNED CLASS: Y
--
MOLECULE: CCN(Cc1ccccc1)C1CCN(Cc2cc(Br)ccc2O)CC1
ASSIGNED CLASS: Y
--
MOLECULE: COc1cccc(C=Cc2nc(=O)c3ccccc3o2)c1OC
ASSIGNED CLASS: N
--
MOLECULE: Cc1sc(NC(=O)c2ccco2)c(C(c2cccnc2)N2CCC(Cc3ccccc3)CC2)c1C (centres undefined)
ASSIGNED CLASS: Y
--
MOLECULE: COc1ccc(-c2nc3cc(Cc4ccc5[nH]c(-c6ccc(OC)cc6)nc5c4)ccc3[nH]2)cc1
ASSIGNED CLASS: Y
--
MOLECULE: COc1ccc(N2CCN(C(CNC(=O)C3CCCCC3)c3ccc4c(c3)OCO4)CC2)cc1 (centres undefined)
ASSIGNED CLASS: N
--
MOLECULE: CCN(CC)CCCNc1ccnc2cc3ccccc3cc12
ASSIGNED CLASS: N
--
MOLECULE: COc1ccc2nc(C)cc(Nc3cccc(O)c3)c2c1
ASSIGNED CLASS: N
--
MOLECULE: CCCCc1c(C)nc2c(OC)cccc2c1O
ASSIGNED CLASS: N
--
MOLECULE: O=C(CSc1ccc2nnc(-c3cccc(F)c3)n2n1)Nc1ccc2c(c1)OCO2
ASSIGNED CLASS: N
--
MOLECULE: O=C1C2=C(Nc3ccccc3SC2c2ccccc2)c2ccccc21 (centres undefined)
ASSIGNED CLASS: Y
--
MOLECULE: Nc1ccc(-c2nc3cc(Cc4ccc5[nH]c(-c6ccc(N)cc6)nc5c4)ccc3[nH]2)cc1
ASSIGNED CLASS: Y
--
MOLECULE: COCCN(C(=O)Cc1cccs1)C(C(=O)NCc1ccc(OC)cc1)c1ccc(C(C)C)cc1 (centres undefined)
ASSIGNED CLASS: N
--
MOLECULE: FC(F)(F)c1cccc(CNC2CCN(CCc3ccccc3)CC2)c1
ASSIGNED CLASS: N
--
MOLECULE: OC(CNC1CCCCC1)Cn1c2ccc(I)cc2c2cc(I)ccc21 (centres undefined)
ASSIGNED CLASS: Y
--
MOLECULE: COc1ccccc1C(=O)ON=C(N)Cc1cccc2ccccc12
ASSIGNED CLASS: Y
--
MOLECULE: c1ccc2cc3c(Nc4ccc(N5CCOCC5)cc4)ccnc3cc2c1
ASSIGNED CLASS: N
--
MOLECULE: Brc1ccc(Nc2nc3ccccc3nc2Nc2ccc(Br)cc2)cc1
ASSIGNED CLASS: Y
--
MOLECULE: OCCNc1nc(Nc2ccc(Cl)c(Cl)c2)nc2ccccc12
ASSIGNED CLASS: Y
--
MOLECULE: OC1=C2C(=Nc3ccccc3SC2c2ccc(Br)cc2)c2ccccc21 (centres undefined)
ASSIGNED CLASS: N
--
MOLECULE: COc1ccc(CCN2CCC(CN(C)Cc3cnn(-c4ccccc4)c3)CC2)cc1
ASSIGNED CLASS: Y
--
MOLECULE: Cc1ccc2nc(C)cc(Nc3cccc(C(F)(F)F)c3)c2c1
ASSIGNED CLASS: N
--
MOLECULE: COc1ccc2c(c1)OC(O)(C(F)(F)C(F)(F)F)CC2=O (centres undefined)
ASSIGNED CLASS: N
--
MOLECULE: COc1ccc(C=C2SC(=N)N(c3ccccc3OC)C2=O)cc1
ASSIGNED CLASS: N
--
MOLECULE: Nc1nc(Nc2cccc(F)c2)nc2ccccc12
ASSIGNED CLASS: N
--
MOLECULE: CN(C)CCCNCc1ccc(-c2ccc(F)c(Cl)c2)o1
ASSIGNED CLASS: Y
--
MOLECULE: CCOC(=O)c1cnc2ccc(Cl)cc2c1NCCCN(C)C
ASSIGNED CLASS: N
--
MOLECULE: Cc1ccc(CN2CCC(C(=O)Nc3ccc(-c4cc5ccccc5[nH]4)cc3)CC2)o1
ASSIGNED CLASS: Y
--
MOLECULE: Cc1cc(NCCN2CCCCC2)c2ccc3ccccc3c2n1
ASSIGNED CLASS: Y
--
MOLECULE: CCOC(=O)c1cnc2c(C)cc(C)cc2c1Nc1ccc(OC)c(OC)c1
ASSIGNED CLASS: N

---

# Test system: Plasmodium falciparum NF54 gametocytes
# TEST SUMMARY: viability index relative to DMSO control (fraction); higher = less gametocyte killing
# CONDITION CONTEXT: gametocyte stage: Stage IV viability index; 12.5 µM; incubation time: 72 h
Response field label: string, one of Met (viability index strictly below 0.7) or Not met.

MOLECULE: COc1ccc(C=C2SC(=N)N(c3ccccc3OC)C2=O)cc1
ASSIGNED CLASS: Not met
--
MOLECULE: CCCCCCC(O)(c1ccc(F)cc1)C(CN1CCOCC1)c1ccccc1 (configuration not stated)
ASSIGNED CLASS: Not met
--
MOLECULE: OC(CNCC1CCCO1)Cn1c2ccc(Cl)cc2c2cc(Cl)ccc21 (configuration not stated)
ASSIGNED CLASS: Met
--
MOLECULE: COc1cc(OC)cc(N2C(=O)N(Cc3ccc(C(C)(C)C)cc3)c3ccccc3S2(=O)=O)c1
ASSIGNED CLASS: Not met
--
MOLECULE: Cc1sc(NC(=O)c2ccco2)c(C(c2cccnc2)N2CCC(Cc3ccccc3)CC2)c1C (configuration not stated)
ASSIGNED CLASS: Met
--
MOLECULE: O=C(Nc1ccc(Cl)c(Cl)c1)Nc1ccc(Cl)c(Cl)c1
ASSIGNED CLASS: Met
--
MOLECULE: Cc1ccc(CSCc2ccc(C(=O)NC3CC3)o2)cc1
ASSIGNED CLASS: Not met
--
MOLECULE: Cc1cc(=O)oc2c1ccc1oc(C(=O)c3ccccc3)c(C)c12
ASSIGNED CLASS: Not met
--
MOLECULE: FC(F)(F)c1cccc(CNC2CCN(CCc3ccccc3)CC2)c1
ASSIGNED CLASS: Not met
--
MOLECULE: CC1CC(C)CN(C(=O)c2ccc(Cl)cc2Cl)C1 (configuration not stated)
ASSIGNED CLASS: Not met
--
MOLECULE: O=[N+]([O-])c1ccc(C=NNc2nc3ccccc3[nH]2)cc1
ASSIGNED CLASS: Not met
--
MOLECULE: O=C(Nc1ccc(C23CC4CC(CC(c5ccccc5)(C4)C2)C3)cc1)c1cccs1
ASSIGNED CLASS: Not met
--
MOLECULE: CC(C)(C)c1ccc(C(=O)Nc2nc3ccccc3s2)cc1
ASSIGNED CLASS: Not met
--
MOLECULE: CCOc1cc(Cl)c(C(C)NC(=O)c2ccccc2)cc1OCC (configuration not stated)
ASSIGNED CLASS: Not met
--
MOLECULE: COc1ccc(Br)cc1C1Nc2ccc3ccccc3c2C2=C1C(=O)CC(c1ccccc1)C2 (configuration not stated)
ASSIGNED CLASS: Not met
--
MOLECULE: CCOc1ccc(Nc2c3ccccc3nc3ccccc23)cc1
ASSIGNED CLASS: Met
--
MOLECULE: COc1ccc(C(=O)Nc2nonc2-c2ccc(OC)c(OC)c2)cc1Cl
ASSIGNED CLASS: Met
--
MOLECULE: O=C(NCc1ccco1)C1CCN(S(=O)(=O)c2ccc(Cl)cc2)CC1
ASSIGNED CLASS: Not met
--
MOLECULE: CC(C)OCc1cc(CN2CCN(c3cccc(Cl)c3)CC2)c(O)c2ncccc12
ASSIGNED CLASS: Met
--
MOLECULE: COc1ccc(C(=O)Nc2ccc3nc(N4CCCCC4)cc(C)c3c2)cc1OC
ASSIGNED CLASS: Not met
--
MOLECULE: Nc1ccc(-c2nc3cc(Oc4ccc(Oc5ccc6[nH]c(-c7ccc(N)cc7)nc6c5)cc4)ccc3[nH]2)cc1
ASSIGNED CLASS: Met
--
MOLECULE: CCCCN(CCCC)S(=O)(=O)c1ccc(NC(=O)c2ccco2)cc1
ASSIGNED CLASS: Not met
